Recorded values, source patent US20200338203A1.

target or system: T1, Human EphA2 (Ecto) (Human, UniProt P29317 24-537)
T1 construct: extracellular domain
T1 sequence (P29317 24-537): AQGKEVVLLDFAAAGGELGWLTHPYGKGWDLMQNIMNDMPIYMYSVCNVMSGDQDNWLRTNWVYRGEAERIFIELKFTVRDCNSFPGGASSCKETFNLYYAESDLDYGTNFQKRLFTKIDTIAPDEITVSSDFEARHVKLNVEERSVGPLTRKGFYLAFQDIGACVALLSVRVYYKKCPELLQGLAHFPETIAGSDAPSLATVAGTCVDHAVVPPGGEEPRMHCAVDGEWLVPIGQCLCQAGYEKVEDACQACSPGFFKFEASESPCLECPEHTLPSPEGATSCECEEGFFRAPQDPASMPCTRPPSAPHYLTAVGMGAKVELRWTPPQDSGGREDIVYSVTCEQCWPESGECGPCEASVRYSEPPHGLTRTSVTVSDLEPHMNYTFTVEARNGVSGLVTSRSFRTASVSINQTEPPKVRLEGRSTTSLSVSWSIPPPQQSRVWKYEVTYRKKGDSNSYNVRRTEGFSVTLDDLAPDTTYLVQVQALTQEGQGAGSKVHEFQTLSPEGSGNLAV
experiment description: FP competition; competitor Compound 18
pKi: −log10 of the molar value. Numbered stars: 1 amine (or outer) side, 2 acyl side, 3 side chain; on linkers, the order of the positions; unused ones are H or OH. Bridge positions count the residues as written; N and C are the ends. Square brackets hold non-standard residues; d marks the D form. Ends that are not written are not given here. 1Nal = N[C@@H](Cc1cccc2ccccc12)C(=O)O; TBMB = c1c(C[*:1])cc(C[*:3])cc1C[*:2]; hArg = N=C(N)NCCCC[C@H](N)C(=O)O; Tle = CC(C)(C)[C@H](N)C(=O)O; Sar = CNCC(=O)O
reported endpoint: pKi

Looking up AHDVPCPWGPFWCPVNRPGCA (linker 6-13-20 via TBMB) [Compound 59] , I found its pKi recorded as 9.27

(a) Ac-[Sar][Sar]A[dD]VTCPWGPFWCPVNRP[dD]C (linker 7-14-21 via TBMB) [Compound 175]
(b) Ac-[Sar][Sar]AH[dD]VPCP[1Nal]GPFWCP[Tle]N[hArg]PGC (linker 8-15-22 via TBMB) [Compound 227]
// query Which item exceeds the other in pKi, a or b ? Label of pick, please.
// result b
